- Condition info: 308.15 K; 50000 kPa; Liquid; Vibrating tube method
Numbers after ± are expanded uncertainties.
Value type: mass density
A bare number is not enough; add the unit after it.

What mass density value was documented for this compound, CCC(C)CC [3-methylpentane] ?
695.51 ± 0.83 kg/m3

What mass density value was documented for this compound, CCC(C)(C)C [2,2-dimethylbutane] ?
684.38 ± 0.86 kg/m3

What mass density value was documented for this compound, CCCC(C)C [2-methylpentane] ?
685.81 ± 0.85 kg/m3

What mass density value was documented for this compound, CC(C)C(C)C [2,3-dimethylbutane] ?
694.02 ± 0.84 kg/m3

* * *

- Condition info: 313.15 K; 60000 kPa; Liquid; Vibrating tube method
Recorded measurements of mass density, one per entry
Write the number in kg/m3 without appending the unit.

> print(dat)
   smiles.data    value.type  numeric.readout
1   CC(C)C(C)C  mass density            697.4
2   CCC(C)(C)C  mass density           688.22
3     CCCC(C)C  mass density           689.53

Consider the additional compound presented here.
What mass density value was documented for this compound, CCC(C)CC ?
698.74

* * *

- Condition info: 313.15 K; 40000 kPa; Liquid; Vibrating tube method
Recorded measurements of mass density, one per entry
Write the number in kg/m3 without appending the unit.

> print(dat)
   smiles.data  numeric.readout
1   CC(C)C(C)C           683.04
2     CCC(C)CC           684.59
3   CCC(C)(C)C            673.1

What mass density value was documented for this molecule, CCCC(C)C ?
675.03

* * *

Recorded measurements of mass density, one per entry
- Condition info: 323.15 K; 7000 kPa; Liquid; Vibrating tube method
Write the number in kg/m3 without appending the unit.

Solved entries:
> print(dat)
   smiles.data    value.type  unit.annotation  numeric.readout
1   CCC(C)(C)C  mass density            kg/m3           630.61
2   CC(C)C(C)C  mass density            kg/m3           642.73
3     CCCC(C)C  mass density            kg/m3           634.39

Consider the additional molecule presented here.
What mass density value was documented for this molecule, CCC(C)CC ?
645.26

* * *

Recorded measurements of mass density, one per entry
- Condition info: 293.15 K; 2000 kPa; Liquid; Vibrating tube method
± gives the expanded uncertainty stated by the source.
A bare number is not enough; add the unit after it.

> print(dat)
                     molecule    value.type               result
1  CCCC(C)C [2-methylpentane]  mass density  655.38 ± 0.32 kg/m3

What mass density value was documented for this molecule, CCC(C)CC [3-methylpentane] ?
666.4 ± 0.32 kg/m3

What mass density value was documented for this molecule, CCC(C)(C)C [2,2-dimethylbutane] ?
651.6 ± 0.32 kg/m3

What mass density value was documented for this molecule, CC(C)C(C)C [2,3-dimethylbutane] ?
663.76 ± 0.32 kg/m3

* * *

Recorded measurements of mass density, one per entry
- Condition info: 283.15 K; 10000 kPa; Liquid; Vibrating tube method
Write the number in kg/m3 without appending the unit.

> print(dat)
   smiles.data    value.type  numeric.readout
1     CCCC(C)C  mass density           672.23
2   CCC(C)(C)C  mass density           669.19
3   CC(C)C(C)C  mass density           680.57

What mass density value was documented for this compound, CCC(C)CC ?
682.8

* * *

- Condition info: 318.15 K; 65000 kPa; Liquid; Vibrating tube method
Value type: mass density (kg/m3)
Write the number in kg/m3 without appending the unit.

Solved entries:
> print(dat)
                          compound    value.type  numeric.readout
1  CCC(C)(C)C [2,2-dimethylbutane]  mass density           688.58
2  CC(C)C(C)C [2,3-dimethylbutane]  mass density           697.71
3       CCCC(C)C [2-methylpentane]  mass density            689.7

Consider the additional compound presented here.
What mass density value was documented for this compound, CCC(C)CC [3-methylpentane] ?
699.05

* * *

- Condition info: 328.15 K; 30000 kPa; Liquid; Vibrating tube method
Recorded measurements of mass density, one per entry
Write the number in kg/m3 without appending the unit.

Solved entries:
> print(dat)
                          compound    value.type  numeric.readout
1       CCCC(C)C [2-methylpentane]  mass density           655.55
2       CCC(C)CC [3-methylpentane]  mass density            665.6
3  CCC(C)(C)C [2,2-dimethylbutane]  mass density           653.14

Consider the additional compound presented here.
What mass density value was documented for this compound, CC(C)C(C)C [2,3-dimethylbutane] ?
663.86

* * *

Recorded measurements of mass density, one per entry
- Condition info: 323.15 K; 2000 kPa; Liquid; Vibrating tube method
Write the number in kg/m3 without appending the unit.

Solved entries:
> print(dat)
   smiles.data    value.type  numeric.readout
1   CCC(C)(C)C  mass density           623.17
2     CCCC(C)C  mass density           627.48

What mass density value was documented for this compound, CC(C)C(C)C ?
636.04

What mass density value was documented for this compound, CCC(C)CC ?
638.83

* * *

Recorded measurements of mass density, one per entry
- Condition info: 323.15 K; 10000 kPa; Liquid; Vibrating tube method
Write the number in kg/m3 without appending the unit.

> print(dat)
   smiles.data  numeric.readout
1     CCCC(C)C           638.24
2   CC(C)C(C)C           646.47
3   CCC(C)(C)C           634.54

What mass density value was documented for this molecule, CCC(C)CC ?
648.88

* * *

- Condition info: 293.15 K; 65000 kPa; Liquid; Vibrating tube method
Recorded measurements of mass density, one per entry
Write the number in kg/m3 without appending the unit.

> print(dat)
                          compound    value.type  numeric.readout
1  CC(C)C(C)C [2,3-dimethylbutane]  mass density           713.55
2       CCC(C)CC [3-methylpentane]  mass density           714.81
3       CCCC(C)C [2-methylpentane]  mass density           705.49

What mass density value was documented for this compound, CCC(C)(C)C [2,2-dimethylbutane] ?
704.25

* * *

- Condition info: 323.15 K; 30000 kPa; Liquid; Vibrating tube method
Value type: mass density (kg/m3)
Write the number in kg/m3 without appending the unit.

Solved entries:
> print(dat)
   smiles.data  numeric.readout
1   CC(C)C(C)C           667.06
2   CCC(C)(C)C           656.94
3     CCC(C)CC           669.28

Consider the additional molecule presented here.
What mass density value was documented for this molecule, CCCC(C)C ?
659.4

* * *

- Condition info: 293.15 K; 40000 kPa; Liquid; Vibrating tube method
Value type: mass density (kg/m3)
Write the number in kg/m3 without appending the unit.

> print(dat)
                          compound  numeric.readout
1       CCC(C)CC [3-methylpentane]           698.72
2       CCCC(C)C [2-methylpentane]           689.05
3  CC(C)C(C)C [2,3-dimethylbutane]           697.12

Consider the additional compound presented here.
What mass density value was documented for this compound, CCC(C)(C)C [2,2-dimethylbutane] ?
687.12

* * *

Recorded measurements of mass density, one per entry
- Condition info: 303.15 K; 20000 kPa; Liquid; Vibrating tube method
± gives the expanded uncertainty stated by the source.

> print(dat)
   smiles.data               result
1     CCCC(C)C   665.3 ± 0.51 kg/m3
2   CCC(C)(C)C  662.53 ± 0.51 kg/m3
3   CC(C)C(C)C   673.54 ± 0.5 kg/m3

What mass density value was documented for this molecule, CCC(C)CC ?
675.49 ± 0.5 kg/m3

* * *

Recorded measurements of mass density, one per entry
- Condition info: 323.15 K; 60000 kPa; Liquid; Vibrating tube method
± gives the expanded uncertainty stated by the source.

> print(dat)
   smiles.data               result
1   CCC(C)(C)C   681.7 ± 0.99 kg/m3
2     CCCC(C)C  683.16 ± 0.98 kg/m3
3     CCC(C)CC  692.42 ± 0.96 kg/m3

Consider the additional molecule presented here.
What mass density value was documented for this molecule, CC(C)C(C)C ?
691.19 ± 0.96 kg/m3
